system: L929 cells; test: MTT assay, cell viability; format: cell-based; conditions: L929 normal mouse fibroblasts, 72 h incubation, ± SD
Recorded measurements of IC50, one per entry
Just the number in nM, nothing appended.

In: Given Cc1nn(-c2ccc(S(=O)(=O)N3CCOCC3)cc2)c2nn3nnnc3nc12 , state its recorded IC50.
Out: 220

In: Fill in the blank: the reported IC50 of Cc1nn(-c2ccc(S(=O)(=O)N3CCCCC3)cc2)c2nn3nnnc3nc12 is ____.
Out: 260

In: // returns reported IC50 for input Cc1nn(-c2ccc(S(=O)(=O)N3CCN(C)CC3)cc2)c2nn3nnnc3nc12
Out: 180

In: Dear colleague, I am looking for the recorded IC50 of the following compound: Cc1nn(-c2ccc(S(=O)(=O)NCCN3CCOCC3)cc2)c2nn3nnnc3nc12
Out: 580

====

tested on: PC-3 cells; assay: Dual acridine orange/ethidium bromide (AO/EB) fluorescent staining, apoptosis; type: cell-based, human; details: PC-3, 48 h incubation, 2xIC50 concentration, AO/EB, ± SD; control 1.5 ± 0.7%
Each entry below lists one item and its recorded mean % of apoptotic cells value.
The reply should be a number in %, with the unit left off.

# compound, mean % of apoptotic cells [%]
rows = [
    ("Cc1nn(-c2ccc(S(=O)(=O)N3CCN(C)CC3)cc2)c2nn3nnnc3nc12 [MM137]", 24),
    ("Cc1nn(-c2ccc(S(=O)(=O)N3CCOCC3)cc2)c2nn3nnnc3nc12 [MM136]", 14.5),
]

In: Name the reported mean % of apoptotic cells value associated with the compound Cc1nn(-c2ccc(S(=O)(=O)NCCN3CCOCC3)cc2)c2nn3nnnc3nc12 [MM134]
Out: 11

In: // mean % of apoptotic cells lookup, key: Cc1nn(-c2ccc(S(=O)(=O)N3CCCCC3)cc2)c2nn3nnnc3nc12 [MM139]
Out: 12.5

====

system: BxPC-3 cells; assay: MitoTracker Red, mitochondria membrane potential; assay type: cell-based, human; settings: BxPC-3, 48 h incubation, 2xIC50, ± SD
reportedMetric: mean percentage of control group fluorescence intensity (MMP) (%)
Respond numerically; units are % and should not be typed.

Known results for molecules:
# molecule, unitLabel, value
data = [
    ("Cc1nn(-c2ccc(S(=O)(=O)N3CCOCC3)cc2)c2nn3nnnc3nc12 [MM136]", "%", 61.83),
    ("Cc1nn(-c2ccc(S(=O)(=O)N3CCN(C)CC3)cc2)c2nn3nnnc3nc12 [MM137]", "%", 73.8),
    ("Cc1nn(-c2ccc(S(=O)(=O)N3CCCCC3)cc2)c2nn3nnnc3nc12 [MM139]", "%", 65.95),
]

In: Please tell me: mean percentage of control group fluorescence intensity (MMP) of Cc1nn(-c2ccc(S(=O)(=O)NCCN3CCOCC3)cc2)c2nn3nnnc3nc12 [MM134] , system BxPC-3 cells?
Out: 68.95

====

test system: BxPC-3 cells; experiment: Annexin V-FITC/propidium iodide flow cytometry, apoptosis; format: cell-based, human; conditions: BxPC-3, 24 h incubation, IC50 concentration, Annexin V-FITC, ± SD; control 10.3 ± 2.09%
reportedMetric: mean percentage of apoptotic cells (early and late apoptotic) (%)
I only need the number, in %, no unit after it.

Completed entries (count: 3):
# molecule, value
measured = [
    ("Cc1nn(-c2ccc(S(=O)(=O)N3CCOCC3)cc2)c2nn3nnnc3nc12 [MM136]", 41.7),
    ("Cc1nn(-c2ccc(S(=O)(=O)N3CCN(C)CC3)cc2)c2nn3nnnc3nc12 [MM137]", 18.9),
    ("Cc1nn(-c2ccc(S(=O)(=O)NCCN3CCOCC3)cc2)c2nn3nnnc3nc12 [MM134]", 65.3),
]

We now examine a further molecule.
In: Give the measured mean percentage of apoptotic cells (early and late apoptotic) of Cc1nn(-c2ccc(S(=O)(=O)N3CCCCC3)cc2)c2nn3nnnc3nc12 [MM139] .
Out: 59.6

====

# maps each entry to its mean percentage of control group fluorescence intensity (MMP)
system: PC-3 cells; assay: MitoTracker Red, mitochondria membrane potential; assay type: cell-based, human; settings: PC-3, 24 h incubation, IC50, ± SD
Field: value (include unit after the number)

Field: example entries. Status: answers known.
# molecule, value
data = [
    ("Cc1nn(-c2ccc(S(=O)(=O)N3CCN(C)CC3)cc2)c2nn3nnnc3nc12 [MM137]", "87.9 ± 2.71%"),
    ("Cc1nn(-c2ccc(S(=O)(=O)N3CCCCC3)cc2)c2nn3nnnc3nc12 [MM139]", "87.28 ± 15.8%"),
]

In: # query: mean percentage of control group fluorescence intensity (MMP) | item Cc1nn(-c2ccc(S(=O)(=O)N3CCOCC3)cc2)c2nn3nnnc3nc12 [MM136] | system: PC-3 cells
Out: 92.78 ± 0.9%

In: Value wanted: mean percentage of control group fluorescence intensity (MMP) (PC-3 cells) of entry Cc1nn(-c2ccc(S(=O)(=O)NCCN3CCOCC3)cc2)c2nn3nnnc3nc12 [MM134]
Out: 82.5 ± 2.21%

====

Measured mean percentage of control group fluorescence intensity (MMP) by item
tested on: BxPC-3 cells; test: MitoTracker Red, mitochondria membrane potential; format: cell-based, human; conditions: BxPC-3, 48 h incubation, IC50, ± SD
Give just the numeric value; % need not be written.

The following compounds have reported results that may help.
# compound, testedOn, value
records = [
    ("Cc1nn(-c2ccc(S(=O)(=O)N3CCN(C)CC3)cc2)c2nn3nnnc3nc12 [MM137]", "BxPC-3 cells", 79.8),
    ("Cc1nn(-c2ccc(S(=O)(=O)N3CCCCC3)cc2)c2nn3nnnc3nc12 [MM139]", "BxPC-3 cells", 60.35),
    ("Cc1nn(-c2ccc(S(=O)(=O)N3CCOCC3)cc2)c2nn3nnnc3nc12 [MM136]", "BxPC-3 cells", 62.37),
]

# context switch: different compound, same mean percentage of control group fluorescence intensity (MMP)
In: State its mean percentage of control group fluorescence intensity (MMP) on BxPC-3 cells: Cc1nn(-c2ccc(S(=O)(=O)NCCN3CCOCC3)cc2)c2nn3nnnc3nc12 [MM134]
Out: 66.04

====

test system: PC-3 cells; experiment: MitoTracker Red, mitochondria membrane potential; assay type: cell-based, human; conditions: PC-3, 48 h incubation, IC50, ± SD
reportedMetric: mean percentage of control group fluorescence intensity (MMP) (%)
Kindly answer with a numeric value in %, unit omitted.

Below are worked cases with known answers.
# recordSmiles, testedOn, value
measured = [
    ("Cc1nn(-c2ccc(S(=O)(=O)NCCN3CCOCC3)cc2)c2nn3nnnc3nc12", "PC-3 cells", 80.26),
    ("Cc1nn(-c2ccc(S(=O)(=O)N3CCCCC3)cc2)c2nn3nnnc3nc12", "PC-3 cells", 65.93),
    ("Cc1nn(-c2ccc(S(=O)(=O)N3CCOCC3)cc2)c2nn3nnnc3nc12", "PC-3 cells", 61.24),
]

In: Recorded mean percentage of control group fluorescence intensity (MMP) for Cc1nn(-c2ccc(S(=O)(=O)N3CCN(C)CC3)cc2)c2nn3nnnc3nc12 with PC-3 cells, please?
Out: 75.49

====

Some compounds, each annotated with its measured IC50.
test system: PC-3 cells; assay: MTT assay, cell viability; assay type: cell-based, human; conditions: Homo sapiens; PC-3, 72 h incubation, MTT, ± SD

The cases that follow already have their IC50 on record.
# recordSmiles, testedOn, IC50
records = [
    ("Cc1nn(-c2ccc(S(=O)(=O)N3CCCCC3)cc2)c2nn3nnnc3nc12", "PC-3 cells", "170 nM"),
    ("Cc1nn(-c2ccc(S(=O)(=O)N3CCN(C)CC3)cc2)c2nn3nnnc3nc12", "PC-3 cells", "110 nM"),
    ("Cc1nn(-c2ccc(S(=O)(=O)NCCN3CCOCC3)cc2)c2nn3nnnc3nc12", "PC-3 cells", "160 nM"),
]

Please look at the following compound next.
In: Fill in the blank: the reported IC50 of Cc1nn(-c2ccc(S(=O)(=O)N3CCOCC3)cc2)c2nn3nnnc3nc12 is ____.
Out: 130 nM
